These entries and their values trace back to ChEMBL document CHEMBL5303300.

Tested on: U2OS
Assay: Multiplex assay against U2OS
Assay type: toxicity, cell-based
Conditions: human, 48 h, 10 µM, compound concentration 10 uM, number of replicates 2
MEASURED PARAMETER: Population Mitotic Cells (%)
Reply numerically in %, unit not repeated.

Population Mitotic Cells (%) in this record for CC1=C(C)C(=O)C(C(CCCCCC(=O)O)c2ccccc2)=C(C)C1=O (centres undefined) : 41

response.value for `CC(C)NC(=O)[C@H]1CCC[C@H]1Nc1nc(Nc2ccc(C(=O)N(C)C3CCN(C)CC3)cc2)ncc1Cl` (field: Population Mitotic Cells (%)) = 10

Please fill in: Population Mitotic Cells (%) reported for `c1ccc2c(-c3coc4cc(-c5ccc(N6CCNCC6)cc5)cnc34)ccnc2c1` = 8

The molecule listed as `O=C1NC(=NCc2cccs2)SC1=Cc1ccc2ncccc2c1` shows Population Mitotic Cells (%) equal to 15
